Provide the recorded IC50 for the entries that follow.
# Tested on: ADR-RES
# assayName: Cytotoxicity assay (cell titer-glo and calcein AM), ADR-RES
# conditionSummary: read-out: Cytotoxicity IC50, NCI/ADR RES, CTG; NCI/ADR RES; CTG (cell titer-glo) readout; % error in parentheses

Tell me IC50 reported for COc1cc2c(c(OC)c1OC)-c1ccc(OC)c(=O)cc1[C@@H](NC(=O)CN(OC)[C@@H]1O[C@H](C)[C@@H](O)[C@H](O)[C@H]1O)CC2 [Col2, 6-deoxy-D-glucoside]
> 10 µM

Give recorded IC50. COc1cc2c(c(OC)c1OC)-c1ccc(OC)c(=O)cc1[C@@H](NC(=O)CN(OC)[C@@H]1O[C@H](CF)[C@@H](O)[C@H](O)[C@H]1O)CC2 [Col54, 6-deoxy-6-fluoro-D-glucoside]
> 10 µM

Determine its reported IC50: COc1cc2c(c(OC)c1OC)-c1ccc(OC)c(=O)cc1[C@@H](NC(=O)CN(OC)[C@@H]1O[C@H](CO)[C@@H](O[C@H]3O[C@H](CO)[C@@H](O[C@H]4O[C@H](CO)[C@@H](O)[C@H](O)[C@H]4O)[C@H](O)[C@H]3O)[C@H](O)[C@H]1O)CC2 [Col13, maltotrioside]
> 10 µM

###

Consider the following compounds; for each one, report its pIC50.
# Test system: NCI-H460
# assayName: Cytotoxicity assay (cell titer-glo and calcein AM), NCI-H460
# conditionSummary: read-out: Cytotoxicity IC50, NCI-H460, CTG; NCI-H460; CTG (cell titer-glo) readout; % error in parentheses
pIC50 here is simply -log10 of the concentration when that concentration is written in mol/L.

Recall and state the measured pIC50 for COc1cc2c(c(OC)c1OC)-c1ccc(OC)c(=O)cc1[C@@H](NC(=O)CN(OC)[C@@H]1O[C@H](C(=O)O)[C@H](O)[C@H](O)[C@H]1O)CC2 [Col18, D-Galacturonoside] .
6.00

Check the records and state pIC50 for COc1cc2c(c(OC)c1OC)-c1ccc(OC)c(=O)cc1[C@@H](NC(=O)CN(OC)[C@@H]1O[C@H](CSC(C)=O)[C@H](O)[C@H](O)[C@H]1O)CC2 [Col68, 6-deoxy-6-thio-acyl-D-galactoside]
5.36

Note down pIC50 recorded for COc1cc2c(c(OC)c1OC)-c1ccc(OC)c(=O)cc1C(NC(=O)CN(OC)C1OC(C)C(O)C(O)C1O)CC2 [Col37, L-rhamnoside]
5.43

Output pIC50 of COc1cc2c(c(OC)c1OC)-c1ccc(OC)c(=O)cc1C(NC(=O)CN(OC)C1OCC(O)C(O)C1O)CC2 [Col7, L-lyxoside]
5.15

###

# Tested on: ADR-RES
# assayName: Cytotoxicity assay (cell titer-glo and calcein AM), ADR-RES
# conditionSummary: read-out: Cytotoxicity IC50, NCI/ADR RES, CTG; NCI/ADR RES; CTG (cell titer-glo) readout; % error in parentheses
pIC50: −log10 of the molar value.
measurementName: pIC50

Determine from records and report pIC50 for COc1cc2c(c(OC)c1OC)-c1ccc(OC)c(=O)cc1C(NC(=O)CN(OC)C1OCC(O)C(O)C1O)CC2 [Col7, L-lyxoside]
< 5.00

Input COc1cc2c(c(OC)c1OC)-c1ccc(OC)c(=O)cc1[C@@H](NC(=O)CN(OC)[C@@H]1OC[C@@H](O)[C@H](O)[C@H]1O)CC2 [Col4, D-xyloside] , output reported pIC50.
< 5.00

Give the reported value of pIC50 for this record: COc1cc2c(c(OC)c1OC)-c1ccc(OC)c(=O)cc1C(NC(=O)CN(OC)C1OC(C)C(O)C(O)C1O)CC2 [Col14, L-fucoside]
< 5.00

Give the measured pIC50 for COc1cc2c(c(OC)c1OC)-c1ccc(OC)c(=O)cc1[C@@H](NC(C)=O)CC2 [Col]
< 5.00
